Tested on: corn
Type: in vivo
CONDITION_INFO: seed treatment, post-emergence; reduction of corn damage by seed dressing with A3 0.5 g/kg; printed in the line of the herbicide alone
# Lookup of reported Damage reduced by keyed by entry
MEASUREMENT_TYPE: Damage reduced by (%)

molecule="COc1cc(Cl)nc(NC(=O)NS(=O)(=O)c2ccccc2C(=O)O)n1 [Component B1.12, chlorimuron]" reported_value=71
molecule="COc1nn(C(=O)NS(=O)(=O)c2ccccc2OC(F)(F)F)c(=O)n1C [Component B1.1, flucarbazone]" reported_value=80
molecule="COc1cc(OC)nc(NC(=O)NS(=O)(=O)c2nc(C(F)(F)F)ccc2C(=O)O)n1 [Component B1.31, flupyrsulfuron]" reported_value=75
molecule="CCCOc1nn(C(=O)[N-]S(=O)(=O)c2ccccc2C(=O)OC)c(=O)n1C.[Na+] [Component B1.23, propoxycarbazone]" reported_value=68
molecule="COc1nc(C)nc(=NC(=O)NS(=O)(=O)c2ccccc2C(=O)O)[nH]1 [Component B1.5, metsulfuron]" reported_value=80

---

Test system: corn
Assay type: in vivo
CONDITION_INFO: in vivo
# Lookup of reported Damage reduced by keyed by entry
MEASUREMENT_TYPE: Damage reduced by

smiles_structure=CCS(=O)(=O)c1cccnc1S(=O)(=O)NC(=O)Nc1nc(OC)cc(OC)n1 reported_value=100%
smiles_structure=CCOc1nc(F)cc2nc(S(=O)(=O)Nc3c(Cl)cccc3C(=O)OC)nn12 reported_value=50%
smiles_structure=COc1c(Cl)ccc(Cl)c1C(=O)O reported_value=100%
smiles_structure=CCOc1ccccc1OS(=O)(=O)NC(=O)Nc1nc(OC)cc(OC)n1 reported_value=50%

---

Tested on: corn
METHOD_NOTES: Herbicidal pre-emergence action: damage to corn
Assay type: in vivo
CONDITION_INFO: in vivo
From the text: Seeds of monocotyledonous and dicotyledonous weed and crop plants are placed into sandy loam in cardboard pots and covered with soil. The herbicidal compositions according to the invention, formulated in the form of wettable powders or emulsion concentrates, are then applied as an aqueous suspension or emulsion with a water application rate of 600 to 800 l/ha (converted) in different dosages to the surface of the covering soil. […]
MEASUREMENT_TYPE: Damage reduced by (%)

molecule="COc1cc(OC)n2nc(S(=O)(=O)Nc3c(Cl)ccc(C)c3Cl)nc2n1 [Component B1.4, metosulam]" study_system=corn reported_value=33
molecule="COc1nc(C)nc(NC(=O)NS(=O)(=O)c2ccccc2OCCCl)n1 [Component B1.28, triasulfuron]" study_system=corn reported_value=71
molecule="COc1nc(C)nc(NC(=O)NS(=O)(=O)c2ccccc2CCC(F)(F)F)n1 [Component B1.8, prosulfuron]" study_system=corn reported_value=67
molecule="CCOc1nc(F)cc2nc(S(=O)(=O)Nc3c(Cl)cccc3C(=O)OC)nn12 [Component B1.11, cloransulam-methyl]" study_system=corn reported_value=43
molecule="Cc1ccn2nc(S(=O)(=O)Nc3c(F)cccc3F)nc2n1 [Component B1.16, flumetsulam]" study_system=corn reported_value=57
molecule="CCOc1ccccc1OS(=O)(=O)NC(=O)Nc1nc(OC)cc(OC)n1 [Component B1.13, ethoxysulfuron]" study_system=corn reported_value=50
molecule="COc1nc(C)nc(NC(=O)NS(=O)(=O)c2cc(I)ccc2C(=O)O)n1 [Component B1.3, iodosulfuron]" study_system=corn reported_value=69
